# target system: β-catenin (Homo sapiens, UniProt P35222)
# Sequence (P35222 whole entry): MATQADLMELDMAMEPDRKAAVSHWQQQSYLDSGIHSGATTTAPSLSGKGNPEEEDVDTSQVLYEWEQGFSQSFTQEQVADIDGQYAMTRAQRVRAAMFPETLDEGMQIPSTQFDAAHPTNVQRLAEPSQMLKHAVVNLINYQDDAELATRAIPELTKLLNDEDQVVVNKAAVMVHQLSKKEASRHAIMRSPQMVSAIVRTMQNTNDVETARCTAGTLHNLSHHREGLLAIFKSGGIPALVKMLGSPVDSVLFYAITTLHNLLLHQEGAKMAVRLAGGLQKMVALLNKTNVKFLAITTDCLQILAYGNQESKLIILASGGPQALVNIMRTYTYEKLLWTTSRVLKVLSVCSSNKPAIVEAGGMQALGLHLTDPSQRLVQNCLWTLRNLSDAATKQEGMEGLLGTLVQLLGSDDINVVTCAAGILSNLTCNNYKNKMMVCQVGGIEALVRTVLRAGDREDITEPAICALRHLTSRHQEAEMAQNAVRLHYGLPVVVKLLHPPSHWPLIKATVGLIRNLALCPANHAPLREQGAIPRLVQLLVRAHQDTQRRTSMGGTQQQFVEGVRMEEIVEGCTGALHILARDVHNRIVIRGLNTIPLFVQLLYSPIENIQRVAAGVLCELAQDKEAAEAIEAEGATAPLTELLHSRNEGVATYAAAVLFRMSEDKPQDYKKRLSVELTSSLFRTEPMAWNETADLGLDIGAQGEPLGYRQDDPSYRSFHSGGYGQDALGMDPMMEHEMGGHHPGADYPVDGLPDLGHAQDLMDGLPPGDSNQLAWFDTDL
# measurement notes: KD50 measurement using competitive fluorescence polarization (FP) with labelled TCF4
# Format: binding
# measurement context: fluorescence polarization, β-catenin; read-out: β-Cat FP KD
pKd: −log10 of the molar value. Where a SMILES comes first, the peptide text is derived from it. The star is where a group is joined. Bn = c1ccc(C*)cc1
readout: pKd

molecule: CC[C@H](C)[C@H](NC(=O)[C@H](CC(C)C)NC(=O)[C@H](Cc1ccccc1)NC(=O)[C@H](Cc1c[nH]c2ccccc12)NC(=O)[C@H](CCSC)NC(=O)[C@H](CCCNC(=N)N)NC(=O)[C@H](CO)NC(=O)[C@@H](N)CCSC)C(=O)N[C@@H](CO)C(=O)N[C@@H](Cc1ccccc1)C(=O)N[C@@H](Cc1c[nH]c2ccccc12)C(=O)N[C@@H](CCC(=O)O)C(=O)NCC(=O)O [compound 57] (H-MSRMWFLISFWEG-OH)
obs value: 5.00 to 6.00
--
molecule: CC[C@H](C)[C@H](NC(=O)[C@H](CC(C)C)NC(=O)[C@H](Cc1ccccc1)NC(=O)[C@@H](N)Cc1c[nH]c2ccccc12)C(=O)N[C@@H](CO)C(=O)N[C@@H](COCc1ccccc1)C(=O)N[C@@H](Cc1c[nH]c2ccccc12)C(=O)O [compound 101] (H-WFLISS(Bn)W-OH)
obs value: 5.00 to 6.00
--
molecule: CC[C@H](C)[C@H](NC(=O)[C@H](CC(C)C)NC(=O)[C@@H](NC(=O)[C@H](Cc1c[nH]c2ccccc12)NC(=O)[C@@H](N)Cc1c[nH]cn1)[C@@H](C)CC)C(=O)N[C@@H](CO)C(=O)N[C@@H](Cc1ccccc1)C(=O)N[C@@H](Cc1c[nH]c2ccccc12)C(=O)NCC(=O)O [compound 126] (H-HWILISFWG-OH)
obs value: > 6.40

src = patent US12441768B2
